- TESTED_TARGET: Broad substrate specificity ATP-binding cassette transporter ABCG2 (Homo sapiens) (UniProt Q9UNQ0)
- Sequence (Q9UNQ0 whole entry, looked up): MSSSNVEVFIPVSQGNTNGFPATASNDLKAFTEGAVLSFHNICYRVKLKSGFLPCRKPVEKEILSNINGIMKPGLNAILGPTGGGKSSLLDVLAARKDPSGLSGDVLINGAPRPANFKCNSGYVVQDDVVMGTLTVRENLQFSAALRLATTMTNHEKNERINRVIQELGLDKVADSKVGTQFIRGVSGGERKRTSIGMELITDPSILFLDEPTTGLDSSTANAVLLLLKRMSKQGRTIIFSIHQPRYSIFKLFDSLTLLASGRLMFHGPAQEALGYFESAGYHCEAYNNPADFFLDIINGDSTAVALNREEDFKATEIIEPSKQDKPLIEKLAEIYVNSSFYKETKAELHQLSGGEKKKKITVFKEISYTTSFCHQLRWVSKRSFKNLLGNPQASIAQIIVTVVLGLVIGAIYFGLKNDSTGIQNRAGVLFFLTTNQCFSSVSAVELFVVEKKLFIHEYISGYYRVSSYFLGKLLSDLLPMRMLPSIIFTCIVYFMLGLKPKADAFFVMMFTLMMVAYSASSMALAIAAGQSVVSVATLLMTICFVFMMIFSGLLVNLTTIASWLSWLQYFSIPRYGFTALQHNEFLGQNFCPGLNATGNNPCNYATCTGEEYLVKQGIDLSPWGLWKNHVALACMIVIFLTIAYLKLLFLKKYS
- ASSAY_TEXT: ABCG2 efflux pump inhibitors, primary screen, multiplex with ABCB1, IgMXP3 cells, flow cytometry (AID 1325);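 also: 0% = DMSO and 100% = nicardipine control wells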
- CONDITIONS: JC-1 efflux, at 6.6 µM, active compounds read high
In all, about 190,000 compounds went through this assay and about 200 (0.11%) were called active. The entries come from a sample that favours actives as a whole.
Could you please report measured inhibition for the items listed next?

Examples with their reported inhibition follow.
CCC(C(=O)OCC(=O)Nc1ccccc1-c1ccccc1)c1ccccc1 (stereo not drawn) | 3.04% (inactive)
CC(Sc1nc2cc(Cl)ccc2s1)C(=O)Nc1ccc2c(c1)OCO2 (stereo not drawn) | 0% (inactive)
O=C(c1ccc(-c2ccccc2)cc1)C1CCCN(C(=O)c2cncs2)C1 (stereo not drawn) | 3.81% (inactive)

Parameters: items (list). Returns: inhibition for each item.
1. O=C(Oc1cccc(N2C(=O)C3C4c5ccccc5C(c5ccccc54)C3C2=O)c1)c1ccco1 (stereo not drawn)
2. CC(C)(C)n1nc2c(c1NC(=O)c1cc3ccccc3o1)CSC2
3. COc1cc(N2C(=O)c3ccccc3C2=O)c(Cl)cc1C(=O)OCC(=O)N1CCOCC1
4. S=C(c1ccc(-c2ccccc2)o1)N1CCCCC1

Result:
1: 0.99% (inactive); 2: 0.23% (inactive); 3: 2.21% (inactive); 4: 1.68% (inactive)
